# PROTOCOL TEXT: qHTS Assay for Lipid Storage Modulators in Drosophila S3 Cells
# MEASUREMENT SETUP: BODIPY lipid droplet fluorescence, 18-24 h, cells fed with added oleic acid; series mostly up to 46.1 µM
Hit rate of the full screen: of about 320,000 compounds, about 2,100 (0.66%) were called active. Inconclusive results (about 53%) are left out. Calls follow the shape of the dose curve; as a rule, active = well fitted inhibition curve with a large enough effect in the signal ratio, with a control signal flat (not every such curve was filed as active); inconclusive = small, poorly fitted or top-dose-only effect, or effect the other way, or a change in a side signal; inactive = flat fitted curve, though single readings scatter; the % refers to the signal ratio. For the sample, actives were picked, then their nearest neighbours and some compounds at random.
Answer with one of the outcomes given here: class 1 for active, class 0 for inactive

Q. Name the outcome recorded for CCCCC[C@H](O)/C=C/[C@H]1C=CC(=O)[C@@H]1C/C=C\CCCC(=O)O in the assay.
A. class 0

Q. Now give it for CCOc1ccc2c(c1)C(C)=CC(C)(C)N2S(=O)(=O)c1ccc(NC(C)=O)cc1 too.
A. class 1

Q. Now give it for Cc1ccc2c(c1)/C(=C/c1ccc(F)cc1)C(=O)N2 too.
A. class 0

Q. Now give it for CN(C)S(=O)(=O)c1ccc2c(c1)/C(=C/c1cc3c([nH]1)CCCC3)C(=O)N2 too.
A. class 1

Q. Now give it for O=C1CCCN1CCNC(=S)Nc1ccccc1 too.
A. class 0

Q. Now give it for CS(=O)(=O)N(CC(=O)N1CCN(c2ccccc2F)CC1)C1CCCCC1 too.
A. class 0

Q. Now give it for CCNC(=O)n1nccc1C(C)Oc1ccccc1 (stereo not given) too.
A. class 0

Q. Now give it for O=C(Nc1ccccc1C(=O)Nc1ccccn1)c1cccc([N+](=O)[O-])c1 too.
A. class 0

Q. Now give it for CCCCC1C(=O)CC[C@H]2[C@@H]1CC(=O)[C@@H]2C/C=C\CCCC(=O)O (stereo not given in full) too.
A. class 1

Q. Now give it for CCOc1ccc2c(c1)C(C)=CC(C)(C)N2S(=O)(=O)c1ccc(C)cc1 too.
A. class 0

###

cell number change listing for selected compounds.
# PROTOCOL TEXT: qHTS Assay for Lipid Storage Modulators in Drosophila S3 Cells;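 as to cell number change: cells counted by Cell Tracker Red CMTPX staining in the red channel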
# MEASUREMENT SETUP: BODIPY lipid droplet fluorescence, 18-24 h, cells fed with added oleic acid; measured here: cell count max response
The campaign covered roughly 320,000 compounds. About 2,100 (0.66%) were called active. Not shown: some 53% with an inconclusive outcome. Only a selection was taken, and actives are over-represented in it overall.
Lab book: enter the figure in %, no units written.

As a guide, the following entries are already answered.
| COMPOUND | VALUE UNIT | NUMERIC VALUE |
| --- | --- | --- |
| CSC1=NCCN1S(=O)(=O)c1ccc2ccccc2c1 | % | 1.31 |
| CCCCn1nnnc1SCC(=O)NNC(=O)c1ccco1 | % | 1.07 |
| COC(=O)c1c(NC(=O)c2ccco2)sc2c1CCC2 | % | 3.65 |

Q. # get_value(readout='cell number change', item= COC(=O)c1sc2ncccc2c1OCc1ccccc1Cl )
A. -10.8

Q. Now give it for COc1ccc(NS(=O)(=O)c2ccc(C(=O)OC(C)C(=O)N3CCOCC3)cc2)cc1 (stereo not given) too.
A. -5.78

Q. Now give it for Cc1ccc(-n2cc(S(=O)(=O)c3ccc(C)cc3)[nH]c2=O)cc1 too.
A. 12.8

Q. Now give it for CCOc1ccccc1C(=O)n1nc2nc(C)cc(C)c2c1N too.
A. 6.26

Q. Now give it for CN(C)c1ccc(/C=C/C(=O)c2cc(Cl)ccc2O)cc1 too.
A. -22.6

Q. Now give it for Cc1ccc(OCc2cc(C(=O)N(C)Cc3cnn(-c4ccccc4C)c3)no2)cn1 too.
A. -11.8

Q. Now give it for COc1ccc(S(=O)(=O)N2CCN(CC(=O)NCCc3cccs3)CC2)cc1 too.
A. -24.5

Q. Now give it for Cc1ccc(-n2nc3c(c2NC(=O)CC(C)C)CS(=O)C3)cc1 (stereo not given) too.
A. -3.89

Q. Now give it for CN(C)C(CNC(=O)CN1C(=O)NC2(CCc3ccccc32)C1=O)c1ccco1 (stereo not given) too.
A. 6.97

Q. Now give it for COc1ccc(OC)c(Nc2nc3nonc3nc2N2CCCC(C)C2)c1 (stereo not given) too.
A. 7.7

###

# PROTOCOL TEXT: qHTS Assay for Lipid Storage Modulators in Drosophila S3 Cells
# MEASUREMENT SETUP: BODIPY lipid droplet fluorescence, 18-24 h, cells fed with added oleic acid; series mostly up to 46.1 µM
Out of some 320,000 compounds screened, about 2,100 (0.66%) were called active. Another 53% or so got no clear call; they are omitted. The call rests on the fitted dose curve; in most records, active means well fitted inhibition curve with a large enough effect in the signal ratio, with a control signal flat (not every such curve was filed as active); inconclusive means small, poorly fitted or top-dose-only effect, or effect the other way, or a change in a side signal; inactive means flat fitted curve, though single readings scatter; the % refers to the signal ratio. The sample as a whole holds a higher share of actives than the screen did.
Answer with one of the outcomes given here: true (1) (active), false (0) (inactive)

| COMPOUND | QUALITATIVE LABEL |
| --- | --- |
| COc1ccccc1-c1nn(-c2ccccc2)cc1C(=O)N1CCN(C(=O)c2ccco2)CC1 | false (0) |
| O=C(Nc1ccc(N2CCN(C(=O)c3ccco3)CC2)cc1)c1ccco1 | false (0) |
| COc1ccccc1-c1cc(C(=O)N2CCc3ccccc3C2)c2ccccc2n1 | false (0) |
| O=C(COc1ccc(Cl)cc1)Nc1ccc(N2CCN(C(=O)c3ccco3)CC2)cc1 | false (0) |
| COc1ccccc1-c1nn(-c2ccccc2)cc1C(=O)N1CCc2ccccc2C1 | true (1) |
| CC(=O)Nc1cccc(C(=O)NC(C)c2ccc(S(N)(=O)=O)cc2)c1 (stereo not given) | true (1) |
| O=C(COc1ccccc1)Nc1ccc(N2CCN(C(=O)c3ccco3)CC2)cc1 | false (0) |
| CC(NC(=O)c1ccc(S(=O)(=O)Nc2ccccc2)cc1)c1ccc(S(N)(=O)=O)cc1 (stereo not given) | false (0) |

Q. Name the outcome recorded for Cc1cc(-n2c(C)cc(C(=O)COc3cc(F)ccc3[N+](=O)[O-])c2C)no1 in the assay.
A. true (1)

Q. Now give it for CCOC(=O)c1ccc(NC(=O)CSc2nnc(-c3ccncc3)n2C)cc1 too.
A. false (0)

###

# PROTOCOL TEXT: qHTS Assay for Lipid Storage Modulators in Drosophila S3 Cells
# MEASUREMENT SETUP: BODIPY lipid droplet fluorescence, 18-24 h, cells fed with added oleic acid; series mostly up to 46.1 µM
The campaign covered roughly 320,000 compounds. About 2,100 (0.66%) were called active. About 53% were inconclusive and are not listed. Calls follow the shape of the dose curve; as a rule, active = well fitted inhibition curve with a large enough effect in the signal ratio, with a control signal flat (not every such curve was filed as active); inconclusive = small, poorly fitted or top-dose-only effect, or effect the other way, or a change in a side signal; inactive = flat fitted curve, though single readings scatter; the % refers to the signal ratio. Only a selection was taken, and actives are over-represented in it overall.
Answer with one of the outcomes given here: TRUE = active, FALSE = inactive

| MOLECULE | QUALITATIVE LABEL |
| --- | --- |
| CCN(C(=O)COC(=O)/C(=C/c1ccccc1)n1nnnc1C)C1CCCCC1 | TRUE |
| CCc1ccc(N2CC(C(=O)NC3CCCCC3C)CC2=O)cc1 (stereo not drawn) | FALSE |
| CCCNc1ccc(S(=O)(=O)N(CC)CC)cn1 | FALSE |
| COc1ccc(-n2c(=O)c3ccccc3n(CC(=O)NC3CCCCC3)c2=O)c(OC)c1 | FALSE |
| Cc1nnnn1/C(=C\c1ccccc1)C(=O)OCC(=O)N1CC2(C)CC1CC(C)(C)C2 (stereo not drawn) | TRUE |
| CC1(C)CC2CC(C)(CN2C(=O)Cc2ccccc2)C1 (stereo not drawn) | FALSE |

Q. Name the outcome recorded for Cc1ccc[n+](/C(=C\C(=C=[N-])C#N)C(=O)c2ccc(Cl)cc2)c1 in the assay.
A. FALSE

Q. Now give it for Cc1nc2ccccc2n1CSc1ccccc1 too.
A. FALSE

Q. Now give it for CCN(CC)CCCn1c(=S)[nH]c2cc(C(=O)OC)ccc2c1=O too.
A. TRUE

Q. Now give it for CCOc1ccc(S(=O)(=O)Nc2nc3ccccc3nc2-n2ccc(=NC(=O)c3ccccc3C)cc2)cc1 too.
A. FALSE

Q. Now give it for CCn1c(=S)[nH]c2cc(C(=O)OC)ccc2c1=O too.
A. FALSE

Q. Now give it for CC1OC2(OC1C)C(=O)Nc1ccccc12 (stereo not drawn) too.
A. FALSE

Q. Now give it for Cc1cccc(C)c1OCC(=O)N1CC2(C)CC1CC(C)(C)C2 (stereo not drawn) too.
A. FALSE

Q. Now give it for COC(=O)c1ccc2c(=O)n(CCCCCC(=O)O)c(=S)[nH]c2c1 too.
A. FALSE

Q. Now give it for CCC(C(=O)N(C(C)C)C(C)C)c1ccccc1 (stereo not drawn) too.
A. FALSE

Q. Now give it for COc1ccc(N2CCN(C(=O)Cn3c(=O)c4cccn4c4cccnc43)CC2)cc1 too.
A. FALSE

Q. Now give it for COc1cc(C(=O)O)cc(OC)c1OCc1cc(C(=O)O)oc1C too.
A. FALSE

Q. Now give it for Cc1oc(C(=O)O)cc1COc1cccc2cccnc12 too.
A. TRUE

Q. Now give it for CC(=O)Nc1ccc(S(=O)(=O)N2CCCN(S(=O)(=O)c3ccc(C)cc3)CC2)cc1 too.
A. FALSE

Q. Now give it for CCOc1ccc(CNc2ccc(N3CCN(Cc4ccccc4)CC3)cc2)cc1 too.
A. TRUE
